Molecular target: T1, SNX1^BAR–SNX5^FL heterodimer (human, UniProt Q13596 301-522; Q9Y5X3 1-404)
T1 construct: BAR domain of SNX1, human; sorting nexin 5 (SNX5), human, full length; also called SNX1^BAR–SNX5 partial heterodimer; source: E. coli BL21 (DE3), purified as for SNX1^FL–SNX5^FL; not shown: His6-SUMO3, N-terminal, cleaved; copies: 1 + 1
T1 sequence (Q13596 301-522, chain 1 of 2): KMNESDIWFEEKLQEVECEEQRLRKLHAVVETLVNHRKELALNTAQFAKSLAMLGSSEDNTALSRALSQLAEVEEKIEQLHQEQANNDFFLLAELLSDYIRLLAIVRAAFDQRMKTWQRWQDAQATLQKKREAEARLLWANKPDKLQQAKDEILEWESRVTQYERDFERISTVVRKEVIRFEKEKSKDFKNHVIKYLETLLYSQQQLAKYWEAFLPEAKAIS
T1 sequence (Q9Y5X3 whole entry, chain 2 of 2, the tested form may be a part): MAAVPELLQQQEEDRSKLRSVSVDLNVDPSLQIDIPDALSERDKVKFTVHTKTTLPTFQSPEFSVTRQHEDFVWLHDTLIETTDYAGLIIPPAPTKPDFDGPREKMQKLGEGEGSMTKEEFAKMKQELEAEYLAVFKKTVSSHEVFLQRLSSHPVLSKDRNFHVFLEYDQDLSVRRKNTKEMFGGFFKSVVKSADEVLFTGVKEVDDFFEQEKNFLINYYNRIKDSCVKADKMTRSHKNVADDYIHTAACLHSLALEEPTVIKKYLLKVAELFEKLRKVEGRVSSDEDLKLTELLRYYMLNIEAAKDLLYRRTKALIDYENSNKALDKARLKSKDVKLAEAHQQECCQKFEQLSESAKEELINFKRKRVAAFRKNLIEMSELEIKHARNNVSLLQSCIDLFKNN
Assay: ITC; 25 °C, 300 mM NaCl, 0.5 mM TCEP, 25 mM HEPES pH 7.5; CI-MPR in the syringe (SNX1^PX in the syringe for its test with the peptide); one-site model
Details: both partners purified
pKd: −log10 of the molar value.

binder	pKd
SNVSYKYSKVNKEEETDENETEWLMEEIQ (peptide, UniProt P11717 2347-2375, looked up, Called a peptide in the ITC methods; also called shorter CI-MPR tail segment)	~5.72
